# system.under.test: human FXa (Homo sapiens, UniProt P00742)
# Sequence (P00742 235-488 limits assumed): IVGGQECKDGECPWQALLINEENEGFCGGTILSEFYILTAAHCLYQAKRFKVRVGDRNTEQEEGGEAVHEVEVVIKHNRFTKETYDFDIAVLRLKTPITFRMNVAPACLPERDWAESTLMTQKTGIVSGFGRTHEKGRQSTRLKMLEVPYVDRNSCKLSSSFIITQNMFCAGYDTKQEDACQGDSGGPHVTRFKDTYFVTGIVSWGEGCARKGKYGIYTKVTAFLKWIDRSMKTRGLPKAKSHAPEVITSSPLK
# Sequence (P00742 41-179 partner limits assumed): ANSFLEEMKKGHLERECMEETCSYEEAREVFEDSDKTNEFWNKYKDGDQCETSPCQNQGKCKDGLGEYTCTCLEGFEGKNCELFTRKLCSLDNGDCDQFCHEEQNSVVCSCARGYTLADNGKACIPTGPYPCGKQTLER
# protocol.details: Measurement of activated blood coagulation factor X (FXa)-inhibiting action
# test.parameters: substrate S-2765, 30 minutes incubation, A405, read-out: FXa inhibition activity (IC50)
pIC50: −log10 of the molar value.
readout.kind: pIC50

compound_smiles=N=C(N)c1cccc(-c2cc(COc3cccc(CN)c3)cc(C(=O)O)c2)c1 system_under_test="human FXa (Homo sapiens, UniProt P00742)" result="5.00 to 6.00"
compound_smiles=COC(=O)c1cc(COc2cccc(CN)c2)cc(-c2cccc(C(=N)N)c2)c1 system_under_test="human FXa (Homo sapiens, UniProt P00742)" result="5.00 to 6.00"
compound_smiles=COC(=O)c1cc(COc2ccc(C(C)C)cc2)cc(-c2cccc(C(=N)N)c2)c1 system_under_test="human FXa (Homo sapiens, UniProt P00742)" result="5.00 to 6.00"
compound_smiles=COC(=O)c1cc(COc2ccc3c(c2)CN(C(C)=N)C3)cc(-c2cccc(C(=N)N)c2)c1 system_under_test="human FXa (Homo sapiens, UniProt P00742)" result="6.00 to 7.00"

* * *

# system.under.test: human FXa (Homo sapiens, UniProt P00742)
# protocol.details: Measurement of activated blood coagulation factor X (FXa)-inhibiting action
# test.parameters: substrate S-2765, 30 minutes incubation, A405, read-out: FXa inhibition activity (IC50)
# Method: Measurement of activated blood coagulation factor X (FXa)-inhibiting action A specimen was dissolved in water or in water containing an organic solvent (DSMO, ethanol or methanol) in a proper concentration to prepare a specimen. […]
pIC50: −log10 of the molar value.
We begin with a simple list: items and their reported pIC50.
readout.kind: pIC50

compound_smiles=COC(=O)c1cc(COc2cccc(CCN)c2)cc(-c2cccc(C(=N)N)c2)c1 system_under_test="human FXa (Homo sapiens, UniProt P00742)" result="5.00 to 6.00"
compound_smiles=COC(=O)c1cc(COc2cccnc2N)cc(-c2cccc(C(=N)N)c2)c1 system_under_test="human FXa (Homo sapiens, UniProt P00742)" result="4.00 to 5.00"
compound_smiles=COC(=O)c1cc(COc2ccc(C)cc2N)cc(-c2cccc(C(=N)N)c2)c1 system_under_test="human FXa (Homo sapiens, UniProt P00742)" result="5.00 to 6.00"
compound_smiles=CC(C)c1ccc(OCc2cc(C(=O)O)cc(-c3cccc(C(=N)N)c3)c2)cc1 system_under_test="human FXa (Homo sapiens, UniProt P00742)" result="5.00 to 6.00"

* * *

# system.under.test: human FXa (Homo sapiens, UniProt P00742)
# protocol.details: Measurement of activated blood coagulation factor X (FXa)-inhibiting action
# test.parameters: substrate S-2765, 30 minutes incubation, A405, read-out: FXa inhibition activity (IC50)
pIC50: −log10 of the molar value.
readout.kind: pIC50

compound_smiles=COC(=O)c1cc(COCc2ccccc2)cc(-c2cccc(C(=N)N)c2)c1 result="5.00 to 6.00"
compound_smiles=COC(=O)c1cc(COc2ccc3c(c2)CNC3)cc(-c2cccc(C(=N)N)c2)c1 result="6.00 to 7.00"
compound_smiles=COC(=O)c1cc(-c2cccc(C(=N)N)c2)ccc1COc1cccc(CN)c1 result="4.00 to 5.00"
compound_smiles=N=C(N)c1cccc(-c2cc(COc3cccc(CCN)c3)cc(C(=O)O)c2)c1 result="5.00 to 6.00"
